Test system: HOP-92 NSCLC
Assay: NCI tumour cell line growth inhibition, 48 h

>  <compound>
CC1(Br)C(=O)NC(=O)N([C@H]2C[C@H](O)[C@@H](CO)O2)C1N=[N+]=[N-] (stereo not given in full)

>  <TGI>
> 100 µM

$$$$
>  <compound>
CCC(=O)[O-].CCC(=O)[O-].N.N.N.N.[Co+3].[O-][Cl+3]([O-])([O-])[O-]

>  <TGI>
> 100 µM

$$$$
>  <compound>
CCC(=O)NCC1(c2c[nH]c3ccccc23)SCCS1

>  <TGI>
> 100 µM

$$$$
>  <compound>
CCOc1ccccc1N=C(NC(=O)CC)SC

>  <TGI>
> 10 µM

$$$$
>  <compound>
N#C/C(=C\N1CCNC1=S)C(=O)c1ccc2ccccc2c1

>  <TGI>
> 100 µM

$$$$

====

# key: entry, value: TGI
Tested on: NCI/ADR-RES ovarian
Assay: NCI tumour cell line growth inhibition, 48 h

>  <test-smiles>
Cc1ccc2c(c1)C(=O)C1(C2)Cc2ccc(C)cc2C1=O

>  <TGI>
> 100 µM

$$$$
>  <test-smiles>
O=c1cc2oc3ccc4ccccc4c3cc-2c(=O)[nH]1

>  <TGI>
37.1 µM

$$$$
>  <test-smiles>
CC(C)Nc1n[nH]c(=O)n1C(C)C

>  <TGI>
> 100 µM

$$$$
>  <test-smiles>
COc1ccc(-c2ccc(=O)oc2-c2cc(OC)c(OC)c(OC)c2)cc1O

>  <TGI>
> 100 µM

$$$$
>  <test-smiles>
COc1ccc(CCNC(=O)Cc2ccccc2CCO)cc1OC

>  <TGI>
> 100 µM

$$$$
>  <test-smiles>
CC(C)NCCCNC1=C(Cl)C(=O)c2ccccc2C1=O

>  <TGI>
28.6 µM

$$$$
>  <test-smiles>
Cc1cc(Cl)ccc1OCC(=O)Oc1c(Cl)c(Cl)c(Cl)c(Cl)c1Cl

>  <TGI>
67.6 µM

$$$$

====

Tested on: OVCAR-8 ovarian
Test: NCI tumour cell line growth inhibition, 48 h

>  <compound>
c1ccc2c(c1)[Se]c1ccccc1[Se]2

>  <system-name>
OVCAR-8 ovarian

>  <TGI>
> 100 µM

$$$$
>  <compound>
COC(=O)/C1=C/C2CC(/C=C(/c3ccccc3)C(=O)O1)C2

>  <system-name>
OVCAR-8 ovarian

>  <TGI>
80.6 µM

$$$$
>  <compound>
[O-]c1c(-c2ccccc2)[se]c(-c2ccccc2)[n+]1-c1ccccc1

>  <system-name>
OVCAR-8 ovarian

>  <TGI>
13.7 µM

$$$$
>  <compound>
CC(=O)OC1C(O)COC(Oc2c(C)c3c4c(c2O)[C@@H](C)CC[C@@H]4[C@@H](C)C[C@H]3C=C(C)C)C1O (stereo partly specified)

>  <system-name>
OVCAR-8 ovarian

>  <TGI>
49.8 µM

$$$$
>  <compound>
CC(=O)[CH-]C(=O)c1ccccc1.CC(=O)[CH-]C(=O)c1ccccc1.CC(C)CCCC(C)[C@H]1CCC2[C@@H]3CCC4C[C@@H]([O-])CC[C@]4(C)C3CC[C@@]21C.CC(C)CCCC(C)[C@H]1CCC2[C@@H]3CCC4C[C@@H]([O-])CC[C@]4(C)C3CC[C@@]21C.Cl.[Ti+4] (stereo partly specified)

>  <system-name>
OVCAR-8 ovarian

>  <TGI>
> 25 µM

$$$$
>  <compound>
COC(=O)c1c(C)cccc1C1CN=NC12Cc1c(C)cccc1C2=O (stereo unspecified)

>  <system-name>
OVCAR-8 ovarian

>  <TGI>
> 100 µM

$$$$
>  <compound>
CC(C)C(OC(=O)c1cc(NC(=S)c2ccccc2)ccc1Cl)C(C)C

>  <system-name>
OVCAR-8 ovarian

>  <TGI>
> 100 µM

$$$$
>  <compound>
Cn1c(-c2c(N)n(Cc3ccc(Cl)cc3)c3nc(C#N)c(C#N)nc23)nc2ccccc21

>  <system-name>
OVCAR-8 ovarian

>  <TGI>
23.4 µM

$$$$
>  <compound>
Cc1cc2cc(Oc3ccnc(Nc4cccc(CS(=O)(=O)NCCN(C)C)c4)n3)ccc2[nH]1

>  <system-name>
OVCAR-8 ovarian

>  <TGI>
36.1 µM

$$$$
>  <compound>
O=C(CCNC(=O)OCc1ccccc1)OCCCNC(=O)OCc1ccccc1

>  <system-name>
OVCAR-8 ovarian

>  <TGI>
> 100 µM

$$$$
>  <compound>
Cc1ccc2c(c1)C(=O)C1(C2)Cc2ccc(C)cc2C1=O

>  <system-name>
OVCAR-8 ovarian

>  <TGI>
> 100 µM

$$$$
>  <compound>
CP(=O)(CCSc1ccccc1)c1ccccc1 (stereo unspecified)

>  <system-name>
OVCAR-8 ovarian

>  <TGI>
> 100 µM

$$$$
>  <compound>
N[C@H]1CCc2c1nc1c(c2-c2ccccc2)CC[C@@H]1N

>  <system-name>
OVCAR-8 ovarian

>  <TGI>
> 100 µM

$$$$
>  <compound>
Cn1c2nc(=Nc3ccc(Cl)cc3)n3ccc4ccccc4c3c2c(=O)n1-c1ccccc1

>  <system-name>
OVCAR-8 ovarian

>  <TGI>
> 100 µM

$$$$
>  <compound>
CC(=O)C1CC2(c3ccccc3)C(=O)c3ccccc3N2O1 (stereo unspecified)

>  <system-name>
OVCAR-8 ovarian

>  <TGI>
> 100 µM

$$$$
>  <compound>
CN1CCN(c2ccc(NC3=C(Cl)C(=O)c4ncccc4C3=O)cc2C(F)(F)F)CC1

>  <system-name>
OVCAR-8 ovarian

>  <TGI>
12.4 µM

$$$$
>  <compound>
COC(=O)c1ccc(/C=N/c2cc(C)nn2-c2ccccc2)cc1

>  <system-name>
OVCAR-8 ovarian

>  <TGI>
> 100 µM

$$$$
>  <compound>
CCOc1ccccc1N=NC1C(=O)N(C(=O)CC(=O)Nc2ccccc2Cl)N=C1C (stereo unspecified)

>  <system-name>
OVCAR-8 ovarian

>  <TGI>
> 100 µM

$$$$
>  <compound>
CCOc1ccc2c(-c3ccnc(Nc4cccc(C(F)(F)F)c4)n3)cnn2n1

>  <system-name>
OVCAR-8 ovarian

>  <TGI>
11.7 µM

$$$$
>  <compound>
CCCN(CCC)c1ccc(C=O)c(OC)c1

>  <system-name>
OVCAR-8 ovarian

>  <TGI>
> 100 µM

$$$$
>  <compound>
COc1cccc(C(=O)O)c1Cc1cccc2ccccc12

>  <system-name>
OVCAR-8 ovarian

>  <TGI>
> 100 µM

$$$$
>  <compound>
C/C(CC(=O)Nc1ccc(C)cc1)=N\NC(N)=S

>  <system-name>
OVCAR-8 ovarian

>  <TGI>
> 100 µM

$$$$
>  <compound>
COc1cccc(NC(=O)c2c(SC)n[nH]c2N)c1

>  <system-name>
OVCAR-8 ovarian

>  <TGI>
> 100 µM

$$$$
>  <compound>
Cc1cc(C)c(S(=O)(=O)Oc2ccccc2[N+](=O)[O-])c(C)c1

>  <system-name>
OVCAR-8 ovarian

>  <TGI>
> 100 µM

$$$$
>  <compound>
Cc1cc(Cl)ccc1OCC(=O)Oc1c(Cl)c(Cl)c(Cl)c(Cl)c1Cl

>  <system-name>
OVCAR-8 ovarian

>  <TGI>
66.8 µM

$$$$
>  <compound>
C1CSCCSS[C@@H]2CCCCC2SC1 (stereo partly specified)

>  <system-name>
OVCAR-8 ovarian

>  <TGI>
> 100 µM

$$$$
